- Tested on: adrenal angiotensin II receptors
- MEASUREMENT NOTES: Displacement of radiolabelled ligand [^125 I]-SIAII specifically bound to rat adrenal angiotensin II receptors
- Type: binding
- DETAILS: 1E-7M, rat adrenal homogenate, 60 min at 25° C., 0.1 µM
Note to self: values exactly at 50% are label 1. So % displacement of the labelled ligand at or above 50% is label 1, below is label 0.

(Q) Decide: is the reported value of % displacement of the labelled ligand for "CCCc1nc(C)n2nc(S)nc2c1Cc1ccc(-c2ccccc2-c2nnn[nH]2)cc1" equal to or greater than 50%?
(A) label 0

* * *

- System: adrenal angiotensin II receptors
- MEASUREMENT NOTES: Displacement of radiolabelled ligand [^125 I]-SIAII specifically bound to rat adrenal angiotensin II receptors
- Assay type: binding
- DETAILS: 1E-7M, rat adrenal homogenate, 60 min at 25° C., 0.1 µM
- Description: The affinity of the products of the examples for angiotensin II receptors is assessed by a technique of displacement of a radiolabelled ligand specifically bound to the adrenal angiotensin II receptors in the rat. […] The reaction is stopped by adding buffer, followed by rapid filtration through glass-paper filters. The non-specific binding is determined in the presence of angiotensin II. […]
Below, each entry is listed with its recorded % displacement of the labelled ligand.
State the answer as a number, implicitly in %.

MOLECULAR STRING	OUTPUT UNIT	% displacement of the labelled ligand
CCc1nc(C)n2[nH]c(=O)nc2c1Cc1ccc(-c2ccccc2-c2nnn[nH]2)cc1	%	38
CCCc1nc(CC)n2[nH]c(=O)nc2c1Cc1ccc(-c2ccccc2-c2nnn[nH]2)cc1	%	17
CCCCc1nc(C)n2[nH]c(=O)nc2c1Cc1ccc(-c2ccccc2-c2nnn[nH]2)cc1	%	41
CCCc1nc(C)n2nc(CC)nc2c1Cc1ccc(-c2ccccc2-c2nnn[nH]2)cc1	%	52
CCCc1nc(C)n2nc(C(=O)OCC)nc2c1Cc1ccc(-c2ccccc2-c2nnn[nH]2)cc1	%	46
CCc1nc(C)n2nc(C)nc2c1Cc1ccc(-c2ccccc2-c2nn[nH]n2)cc1	%	48
CCCc1nc(C)n2nc(N)nc2c1Cc1ccc(-c2ccccc2-c2nnn[nH]2)cc1	%	58
CCCc1nc(C)n2nc(NC)nc2c1Cc1ccc(-c2ccccc2-c2nnn[nH]2)cc1	%	59

(Q) Give its % displacement of the labelled ligand value. Item: "CCCc1nc(C)n2[nH]c(=O)nc2c1Cc1ccc(-c2ccccc2-c2nnn[nH]2)cc1"
(A) 45

(Q) Give its % displacement of the labelled ligand value. Item: "CCCc1nc(C)n2c(S)nnc2c1Cc1ccc(-c2ccccc2-c2nnn[nH]2)cc1"
(A) 33
